Origin of values: patent US11986532B2

Here, each record is paired with measured Dmax data.
- experimental target: BCL6 (Homo sapiens)
- Construct: endogenous in cells; host or cells: T47D breast cancer epithelial cells
- protocol description: Immunofluorescence protocol for high content imaging of BCL6 (degradation) in T47D cells, 3 days compound treatment
- Format: cell-based
- particulars: T47D, read-out: Mean Dmax (%)** category

Worked set:
CNC(=O)COc1cc2cc(Nc3nc(N4CCC(O[C@H]5C[C@H](N6CCN(C7CN(c8ccc9c(c8F)CN(C8CCC(=O)NC8=O)C9=O)C7)CC6)C5)CC4)ncc3Cl)ccc2n(C(C)C)c1=O (some centres unmarked) = ≥ 70%
CNC(=O)COc1cc2cc(Nc3cc(N4CCC(F)(CN5CCC6(CC5)CN(c5ccc7c(c5F)CN(C5CCC(=O)NC5=O)C7=O)C6(C)C)CC4)ncc3Cl)ccc2n(C(C)C)c1=O (centres unmarked) = 50 to 70%
CNC(=O)COc1cc2cc(Nc3nc(N4CCC(CN5CCC6(CN(c7cccc8c7C(=O)N(C7CCC(=O)NC7=O)C8=O)C6)C(F)C5)CC4)ncc3Cl)ccc2n(C(C)C)c1=O (centres unmarked) = 50 to 70%

Q. Request the reported Dmax associated with CNC(=O)COc1cc2cc(Nc3nc(N4CCC(O[C@H]5C[C@H](N6CCC(c7cc(F)c8c(c7)C(=O)N(C7CCC(=O)NC7=O)C8)C(F)C6)C5)CC4)ncc3Cl)ccc2n(C(C)C)c1=O (some centres unmarked)
A. < 50%

Q. Request the reported Dmax associated with CNC(=O)COc1cc2cc(Nc3nc(N4CCC(O[C@H]5C[C@H](N6CCC(c7cc8c(cc7Cl)C(=O)N(C7CCC(=O)NC7=O)C8)CC6)C5)CC4)ncc3Cl)ccc2n(C(C)C)c1=O (some centres unmarked)
A. 50 to 70%

###

- experimental target: BCL6 (Homo sapiens)
- Construct: endogenous in cells; host or cells: T47D breast cancer epithelial cells
- protocol description: Immunofluorescence protocol for high content imaging of BCL6 (degradation) in T47D cells, 3 days compound treatment
- Format: cell-based
- particulars: read-out: Mean DC50 (nM)* category
Here, each record is paired with measured DC50 data.

CNC(=O)COc1cc2cc(Nc3nc(N4CCC(O[C@H]5C[C@H](N6CC[C@H](c7ccc8c(c7F)CN(C7CCC(=O)NC7=O)C8=O)[C@@H](O)C6)C5)CC4)ncc3Cl)ccc2n(C(C)C)c1=O (stereo partly shown) [Compound 284] = < 10 nM
CNC(=O)COc1cc2cc(Nc3nc(N4CCC(O[C@H]5C[C@H](N6C[C@H](C)N(c7ccc8c(c7)C(=O)N(C7CCC(=O)NC7=O)C8=O)[C@@H](C)C6)C5)CC4)ncc3Cl)ccc2n(C(C)C)c1=O (stereo partly shown) [Compound 246] = < 10 nM
CNC(=O)COc1cc2cc(Nc3nc(N4CCC(O[C@H]5C[C@H](N6CCC(c7cc8c(cn7)C(=O)N(C7CCC(=O)NC7=O)C8)CC6)C5)CC4)ncc3Cl)ccc2n(C(C)C)c1=O (stereo partly shown) [Compound 219] = < 10 nM
CNC(=O)COc1cc2c(F)c(Nc3nc(N4CCC(F)(CN5CCC6(CC5)CN(c5ccc7c(c5F)CN(C5CCC(=O)NC5=O)C7=O)C6)CC4)ncc3Cl)ccc2n(C(C)C)c1=O (stereo not shown) [Compound 390] = < 10 nM
CNC(=O)COc1cc2cc(Nc3nc(N4CCC(CN5CC(N6CCC(c7ccc8c(c7)C(=O)N(C7CCC(=O)NC7=O)C8=O)C(F)C6)C5)CC4)ncc3Cl)ccc2n(C(C)C)c1=O (stereo not shown) [Compound 213] = 10 to 50 nM

Q. Request the reported DC50 associated with CNC(=O)COc1cc2cc(Nc3nc(N4CCC(O[C@H]5C[C@H](N6CC7(CCN(c8ccc9c(c8)C(=O)N(C8CCC(=O)NC8=O)C9)CC7)C6)C5)CC4)ncc3Cl)ccc2n(C(C)C)c1=O (stereo partly shown) [Compound 377]
A. 50 to 100 nM

Q. Request the reported DC50 associated with CNC(=O)COc1cc2cc(Nc3nc(N4CCC(N5CCC6(CN(CC7CCN(c8ccc9c(c8)C(=O)N(C8CCC(=O)NC8=O)C9=O)CC7)C6)C5)CC4)ncc3Cl)ccc2n(C(C)C)c1=O (stereo not shown) [Compound 228]
A. 10 to 50 nM

Q. Request the reported DC50 associated with CNC(=O)COc1cc2cc(Nc3nc(N4CCC(O[C@H]5C[C@H](N6CCC(O)(c7ccc8c(c7)C(=O)N(C7CCC(=O)NC7=O)C8=O)CC6)C5)CC4)ncc3Cl)ccc2n(C(C)C)c1=O (stereo partly shown) [Compound 275]
A. < 10 nM

Q. Request the reported DC50 associated with CNC(=O)COc1cc2cc(Nc3nc(N4CCC(O[C@H]5C[C@H](N6CCC7(CN(c8ccc9c(c8)C(=O)N(C8CCC(=O)NC8=O)C9=O)C7)C6)C5)CC4)ncc3Cl)ccc2n(C(C)C)c1=O (stereo partly shown) [Compound 338]
A. 10 to 50 nM

Q. Request the reported DC50 associated with CNC(=O)COc1cc2cc(Nc3nc(N4CCC(O[C@H]5C[C@H](N6CCC7(CC6)CN(c6ccc8c(c6F)CN(C6CCC(=O)NC6=O)C8=O)C7)C5)CC4)ncc3Cl)ccc2n(C(C)C)c1=O (stereo partly shown) [Compound 410]
A. < 10 nM

Q. Request the reported DC50 associated with CNC(=O)COc1cc2c(F)c(Nc3nc(N4CCC(O[C@H]5C[C@H](N6CCC(c7ccc8c(c7F)CN([C@@H]7CCC(=O)NC7=O)C8=O)CC6)C5)CC4)ncc3Cl)ccc2n(C(C)C)c1=O [Compound 381]
A. < 10 nM

Q. Request the reported DC50 associated with CNC(=O)COc1cc2cc(Nc3cc(N4CCC(CN5CCC6(CN(c7ccc8c(c7)CN(C7CCC(=O)NC7=O)C8=O)C6)C(F)(F)C5)CC4)ncc3Cl)ccc2n(C(C)C)c1=O (stereo not shown) [Compound 231]
A. < 10 nM

Q. Request the reported DC50 associated with CNC(=O)COc1cc2cc(Nc3nc(N4CCC(O[C@H]5C[C@H](N6CCN(c7c(F)cc8c(c7F)CN(C7CCC(=O)NC7=O)C8=O)CC6)C5)CC4)ncc3Cl)ccc2n(C(C)C)c1=O (stereo partly shown) [Compound 386]
A. < 10 nM

Q. Request the reported DC50 associated with CNC(=O)COc1cc2cc(Nc3cc(N4CCC(F)(CN5CCC6(CC5)CN(c5ccc7c(c5F)CN(C5CCC(=O)NC5=O)C7=O)C6(C)C)CC4)ncc3Cl)ccc2n(C(C)C)c1=O (stereo not shown) [Compound 257]
A. < 10 nM

Q. Request the reported DC50 associated with CNC(=O)COc1cc2cc(Nc3nc(N4CCC(O[C@H]5C[C@H](N6CC7(CCN7c7cccc8c7C(=O)N(C7CCC(=O)NC7=O)C8)C6)C5)CC4)ncc3Cl)ccc2n(C(C)C)c1=O (stereo partly shown) [Compound 310]
A. < 10 nM

Q. Request the reported DC50 associated with CNC(=O)COc1cc2cc(Nc3nc(N4CCC(O[C@H]5C[C@H](N6CC=C(c7ccc8c(c7)C(=O)N(C7CCC(=O)NC7=O)C8=O)CC6)C5)CC4)ncc3Cl)ccc2n(C(C)C)c1=O (stereo partly shown) [Compound 303]
A. 50 to 100 nM

Q. Request the reported DC50 associated with CNC(=O)COc1cc2cc(Nc3nc(N4CCC(O[C@H]5C[C@H](N6CCC7(CC6)CN(c6ccc8c(c6)C(=O)N(C6CCC(=O)NC6=O)C8=O)C7)C5)CC4)ncc3Cl)ccc2n(C(C)C)c1=O (stereo partly shown) [Compound 357]
A. < 10 nM

Q. Request the reported DC50 associated with CNC(=O)COc1cc2cc(Nc3nc(N4CCC(N(C)C5CCC6(CC5)CN(c5ccc7c(c5)C(=O)N(C5CCC(=O)NC5=O)C7=O)C6)CC4)ncc3Cl)ccc2n(C(C)C)c1=O (stereo not shown) [Compound 308]
A. < 10 nM

Q. Request the reported DC50 associated with CNC(=O)COc1cc2cc(Nc3nc(N4CCC(O[C@H]5C[C@H](N6CCN(c7ccc8c(n7)CN(C7CCC(=O)NC7=O)C8=O)[C@H](C)C6)C5)CC4)ncc3Cl)ccc2n(C(C)C)c1=O (stereo partly shown) [Compound 415]
A. < 10 nM
